testProtocol: Cmax in fasted Wistar rat at 10 mg/kg, po
Format: ADME, organism-based
Set-up: dose 10 mg/kg, route oral
conditionInfo: in vivo
quantity: Cmax (ng/mL)

INSERT INTO measurements (structurenotation, quantity, valuemeasured) VALUES
  ('COc1ccc(S(=O)(=O)n2nc(C)c3cc(Cl)ccc32)cc1NC1CCN(C)CC1.O=C(O)C(O)C(O)C(=O)O', 'Cmax', 57),
  ('COc1ccc(S(=O)(=O)N2CCOc3ccc(Cl)cc32)cc1NC1CCN(C)CC1', 'Cmax', 197),
  ('COc1ccc(S(=O)(=O)n2cc(C)c3cc(Cl)ccc32)cc1NC1CCN(C)CC1', 'Cmax', 296);
